Source of measurements: paper PMC8006777

target: MPP1 (Manganese Porphyrin-binding Protein 1)
testDetails: UV-vis absorption titration
Set-up: species or system synthetic construct
valueKind: pKd
Note: pKd values are expressed as the negative base-10 logarithm of concentration in M.

What the record says about C1=CC2=[N+]3C1=Cc1ccc4[n]1[Mn-]31[n]3c(ccc3=C2c2ccccc2)=CC2=[N+]1C(=C4c1ccccc1)C=C2 (stereo not shown) : pKd is 6.91
